# EXPERIMENT_DESCRIPTION: photoluminescence quantum yield (fraction); solvent given as SMILES
# REPORTED_CONDITIONS: in CS(C)=O
Please use the following photoluminescence quantum yield ranges when assigning a class: LOW (below 0.04), MID (0.04 to below 0.4), HIGH (0.4 or more)

SMI | CLASS
CN(C)c1ccc2c(c1)Cc1ccccc1-2 | HIGH
CCOC(=O)/C(C#N)=C/c1cc2c3ccccc3n(C)c2cc1OC | LOW
COc1ccc(/C=C/C=C/C=C/c2ccc([N+](=O)[O-])cc2)cc1 | LOW
CN1/C(=C/C=C(/C=C/c2sc3ccccc3[n+]2C)c2cc(F)cc(F)c2)Sc2ccccc21 | MID
CCOC(=O)CN1C(=O)C2=C(c3ccc(C#N)cc3)N(CC(=O)OCC)C(=O)C2=C1c1ccccc1 | HIGH
COc1ccc(C2=C3C(C)=CC(C)=[N+]3[B-](F)(F)n3c(/C=C/c4ccc(N(C)C)cc4)cc(C)c32)cc1 | MID
Cn1cc(/C=C/C(=O)c2ccccc2)c2ccccc21 | HIGH
CN1/C(=C/C=C(/C=C/C2=[N+](C)c3ccccc3C2(C)C)c2ccccc2)C(C)(C)c2ccccc21 | MID
CN(C)CCN(Cc1c2ccccc2cc2ccccc12)c1ccc([N+](=O)[O-])cc1[N+](=O)[O-] | MID

====

# EXPERIMENT_DESCRIPTION: photoluminescence quantum yield (fraction); solvent given as SMILES
# REPORTED_CONDITIONS: in CC#N
MEASUREMENT_LABEL: photoluminescence quantum yield

SMI | MEASUREMENT_LABEL | RESULT
CN(C)c1ccc(/C=C2\CC/C(=C\c3ccc(C#N)cc3)C2=O)cc1 | photoluminescence quantum yield | 0.0036
c1ccc2c(-c3ccc4sc5ccccc5c4c3)c3ccccc3cc2c1 | photoluminescence quantum yield | 0.43
CC(C)(C)c1ccc2c(c1)c1cc(C(C)(C)C)ccc1n2-c1ccc2oc3nc4oc5ccc(C(F)(F)F)cc5c4cc3c2c1 | photoluminescence quantum yield | 0.032
CC(C)c1ccc(/C=C/c2nc3ccc(N(C)C)cc3s2)cc1 | photoluminescence quantum yield | 0.54
Cc1cnc(NC(=O)C2=C([O-])c3ccccc3S(=O)(=O)N2C)s1 | photoluminescence quantum yield | 0.00144

====

# EXPERIMENT_DESCRIPTION: photoluminescence quantum yield (fraction); solvent given as SMILES
# REPORTED_CONDITIONS: in CCOC(C)=O
Please use the following photoluminescence quantum yield ranges when assigning a class: 0 = under 0.09, 1 = from 0.09 up to 0.4, 2 = 0.4 and over

SMI | CLASS
O=C1c2ccccc2-c2ccc(N3CCOCC3)c3cccc1c23 | 1
COc1ccc(C2=C3C=CC(C)=[N+]3[B-](F)(F)n3c(C)ccc32)cc1 | 1
Cc1ccc(OCc2cc(=O)oc3c2ccc2ccccc23)cc1 | 0
COc1cc2c(cc1/C=C/C1=CC(=C(C#N)C#N)CC(C)(C)C1)c1ccccc1n2C | 0
CC1=[N+]2C(=C(Oc3cc(C)c4c(c3)CC[C@@](C)(CCC[C@H](C)CCC[C@H](C)CCCC(C)C)O4)c3ccc(C)n3[B-]2(F)F)C=C1c1cc2n(c1)[B-](F)(F)[N+]1=CC=CC1=C2c1c(C)cc(C)cc1C | 1
CNC1=C2C=CC=[N+]2[B-](F)(F)n2cccc21 | 2
Nc1ccc2c3c(cccc13)C(=O)c1ccccc1-2 | 1
O=C1NC(=O)c2c1c1c3ccccc3[nH]c1c1[nH]c3ccccc3c21 | 1
CN(C)c1ccc(/C=C/c2nc3ccc(N(C)C)cc3oc2=O)cc1 | 2
Cc1ccc(C2=C3C=CC(C#Cc4ccccc4)=[N+]3[B-](F)(F)n3c(Cl)ccc32)cc1 | 2
CCN(CC)c1ccc(-c2nc3c(c4c2-c2ccc(C#N)cc2CC4)-c2ccc(C#N)cc2CC3)cc1 | 2
c1ccc(N2c3ccc4ccccc4c3-c3c4ccccc4nc[n+]3[B-]2(c2ccccc2)c2ccccc2)cc1 | 0
Cc1ccccc1/C(C#N)=C/c1ccc(N(C)C)cc1 | 0
CCC1=C(C)C2=Cc3c(I)c(I)c(I)n3[B-](F)(F)[N+]2=C1C | 0
